Recorded measurements of Kd, one per entry
- System: BmorPBP1 immobilized on reduced graphene oxide field-effect transistor (Bombyx mori)
- Construct: polyhistidine (his-tag, from pET15b) (N); made in house; host or cells: Escherichia coli
- Sequence (P34174 23-164): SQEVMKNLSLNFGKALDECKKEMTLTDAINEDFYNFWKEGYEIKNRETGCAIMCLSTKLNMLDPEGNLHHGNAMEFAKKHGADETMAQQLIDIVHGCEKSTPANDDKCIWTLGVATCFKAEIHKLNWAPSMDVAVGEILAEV
- Measurement protocol: BmorPBP1-functionalized rGO-FET biosensor (titration and kinetic runs, Langmuir model)
- Format: binding
- Reported conditions: immobilized protein, pH 8.0, kinetic runs, averaged results, read-out: Sensor Data Kd, Kinetics
Response body: numeric value in µM, unit text excluded.

As a guide, the following entries are already answered.
• CCC/C=C\C=C\CCCCCCCCCO = 8.2
• COc1nccnc1CC(C)C = 1300

API: the following record is the query input.
The reported BmorPBP1 immobilized on reduced graphene oxide field-effect transistor (Bombyx mori) Kd of "CCC/C=C\C=C\CCCCCCCCC=O" is 7.4

----------
- System: BmorPBP1 (Bombyx mori pheromone-binding protein PBP1) (Bombyx mori, UniProt P34174)
- Construct: polyhistidine (his-tag, from pET15b) (N); made in house; host or cells: Escherichia coli
- Measurement protocol: Fluorescence binding assay in solution (1-NPN titration and competitive displacement)
- Reported conditions: competitive displacement of 1-NPN, protein and probe 2 μM, 50 mM Tris-Cl pH 7.4; read-out: Solution Data Kd
pKd: −log10 of the molar value.
Measurement name: pKd

The compound C=CC(C)(O)CCC=C(C)C (stereo not drawn) showed pKd equal to ~4.40

Reported pKd for "COc1nccnc1CC(C)C" was < 4.00

Field pKd (entry CC(=O)OCCC(C)C [Isoamyl acetate, isoamyl acetate] ) reads ~4.70
